For each of the compounds below, state its inhibition.
biological target: Pantothenate synthetase (Mycobacterium tuberculosis (strain ATCC 25618 / H37Rv)); test: Coupled enzyme confirmation of inhibitors against recombinant Mtb PanC (AID 375); conditions: coupled enzyme assay; at 10 µM, active compounds read high;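 also: 0% = full reaction with vehicle and 100% = no enzyme background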
One number for each entry, in %.

Items follow; give inhibition for each.
1. Cc1noc(C)c1S(=O)(=O)NCCN1CCN(c2ccccc2)CC1
2. N#CC1=C(SCC(=O)c2cc3ccccc3oc2=O)NC(=O)C(C#N)C12CCCC2 (stereo not drawn)
3. Cc1ccc(OCC(=O)NCCN2CCN(C(=O)COc3ccc(C)cc3)CC2)cc1
4. CN(Cc1ccccc1)C(=O)c1cc(-c2ccc(Br)cc2)on1
5. COC(=O)c1ccc2c(=O)n(Cc3ccco3)c(SCC(=O)Nc3ccc(C)c(Cl)c3)nc2c1
6. Cn1c(SCCN2CCCCC2)nnc1-c1ccccc1Br
7. Cn1c(SCc2ccc3c(c2)OCO3)nnc1-c1ccccc1
8. COc1ccc(CN(CCN(C)C)c2ccccn2)cc1

Key:
1. 4
2. 0
3. 0
4. 0
5. 2
6. 0
7. 0
8. 4

Items follow; give inhibition for each.
1. O=S(=O)(NCC(O)COCc1ccco1)c1cccs1 (stereo not drawn)
2. Cc1cnc(NC(=O)CSc2nnc(COc3c(C)cccc3C)o2)s1
3. O=C(NC12CC3CC(CC(C3)C1)C2)N1CCN(C(=O)C2CCCO2)CC1 (stereo not drawn)
4. COC(=O)Cn1c(CN2CCN(c3ccccc3F)CC2)nc2c1c(=O)n(C)c(=O)n2C
5. COc1ccccc1-c1cc2nc(C)c(CCC(=O)NCc3ccco3)c(C)n2n1
6. COc1cccc(-c2nnc3sc(C4CCCCC4)nn23)c1
7. COc1ccc(CCNC(=O)c2cnn3ccccc23)c(OC)c1OC
8. CCN(C(C)=O)c1nnc(CSc2nc3ccccc3s2)s1

Key:
1. 2
2. 8
3. 7
4. 0
5. 0
6. 4
7. 4
8. 5

Items follow; give inhibition for each.
1. O=C(CCn1cccc1)N1CCc2ccccc21
2. Cc1ccc(-c2nnn(CC(=O)N(Cc3cccs3)C(C(=O)NC(C)(C)C)c3ccc(C)o3)n2)o1 (stereo not drawn)
3. N#CC1=C(N)C(C#N)(C#N)[C@H](c2ccsc2)[C@H]2COCC=C12
4. CC(C)COc1nc2ccccc2nc1C(C#N)C(=O)NC1CCCCC1 (stereo not drawn)

Key:
1. 0
2. 0
3. 0
4. 0

* * *

biological target: Pantothenate synthetase (Mycobacterium tuberculosis (strain ATCC 25618 / H37Rv)); assay: Coupled enzyme confirmation of inhibitors against recombinant Mtb PanC (AID 375); details: coupled enzyme assay; at 10 µM, active compounds read high;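 also: 0% = full reaction with vehicle and 100% = no enzyme background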
Calls of active or inactive are those of the source. How the calls were made is not given here.
Quantity Name: inhibition

Previously resolved entries follow.
Compound: Cc1ccc(NC2=NC3(CCCCC3)N=C(N)N2)c(C)c1
Result: 3% (inactive)
//
Compound: Cc1ccc(C2CC(c3ccc(C)cc3)n3nc(N)nc3N2)cc1 (stereo unspecified)
Result: 5% (inactive)
//
Compound: c1ccc2c(CC3=NCCN3)cccc2c1
Result: 0% (inactive)
//
Compound: COc1cc2c(C#N)c(N3CCN(c4ccccc4OC)CC3)nc(N)c2c(N)n1
Result: 0% (inactive)
//
Compound: CCN(CCO)C(=O)CC(c1ccccc1)c1cc(Br)ccc1O (stereo unspecified)
Result: 5% (inactive)

Items follow; give inhibition for each.
1. O=C(Nc1ccc2c(c1)nc1n2CCN(Cc2ccccc2)C1)c1cccs1
2. COc1ccccc1-n1cnc2cc(NS(=O)(=O)c3ccccc3)ccc21
3. CC(C)CN(CC(C)C)C(=O)CS(=O)(=O)Cc1ccccc1
4. N#Cc1c2n(c(=S)n(-c3ccccn3)c1=O)CCCCC2
5. COc1ccc(CC(=O)NCc2cccs2)cc1
6. CCOC(=O)c1oc2c(CN3CCN(C)CC3)c(O)ccc2c(=O)c1-c1ccccc1OC

Key:
["0% (inactive)", "0% (inactive)", "0% (inactive)", "2% (inactive)", "3% (inactive)", "0% (inactive)"]

* * *

For each of the compounds below, state its inhibition.
molecular target: Pantothenate synthetase (Mycobacterium tuberculosis (strain ATCC 25618 / H37Rv)); assay: Coupled enzyme confirmation of inhibitors against recombinant Mtb PanC (AID 375); settings: coupled enzyme assay; at 10 µM, active compounds read high;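 also: 0% = full reaction with vehicle and 100% = no enzyme background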
Activity calls are given as the source filed them. The rule behind the calls is not given here.

Previously resolved entries follow.
Compound: CCN(c1ccc2c(c1)OCO2)S(=O)(=O)c1cc(Br)cc2c1N(C(=O)C1CC1)CC2
inhibition: 0% (inactive)

Compound: CCOC(=O)C1=C(C)NC2=C(C(=O)CC(C)(C)C2)C1c1ccc(N(C)C)cc1 (stereo not given)
inhibition: 0% (inactive)

Compound: CCC1(C)Cc2c(sc3nc(SCC(=O)O)[nH]c(=O)c23)CO1 (stereo not given)
inhibition: 0% (inactive)

Compound: COc1ccc(C2C(C(=O)c3sc(C)nc3C)=C(O)C(=O)N2CCN(C)C)cc1OC (stereo not given)
inhibition: 0% (inactive)

Compound: COC(=O)c1cccc(NC(=O)CN2CCN(Cc3ccccc3)CC2)c1
inhibition: 2% (inactive)

Compound: O=S(=O)(c1ccccc1)c1nc(-c2ccco2)oc1NCCCN1CCOCC1
inhibition: 0% (inactive)

Compound: Cc1nc(CNS(=O)(=O)c2cccc(F)c2)cs1
inhibition: 0% (inactive)

Compound: C[C@@H]1C[C@H](O)c2cc(Cl)ccc2N1
inhibition: 8% (inactive)

Items follow; give inhibition for each.
1. COc1ccc(NC(=O)CSc2nc(C)cc(C(F)(F)F)n2)cc1
2. COc1ccc(CC(=O)Nc2ccc(-c3nnc(-c4ccc(C)cc4)o3)cc2)cc1

Key:
1. 0% (inactive)
2. 4% (inactive)

* * *

biological target: Pantothenate synthetase (Mycobacterium tuberculosis (strain ATCC 25618 / H37Rv)) (UniProt P9WIL5); experiment: Coupled enzyme confirmation of inhibitors against recombinant Mtb PanC (AID 375); settings: coupled enzyme assay; at 10 µM, active compounds read high;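 also: 0% = full reaction with vehicle and 100% = no enzyme background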
Sequence (P9WIL5 whole entry, looked up): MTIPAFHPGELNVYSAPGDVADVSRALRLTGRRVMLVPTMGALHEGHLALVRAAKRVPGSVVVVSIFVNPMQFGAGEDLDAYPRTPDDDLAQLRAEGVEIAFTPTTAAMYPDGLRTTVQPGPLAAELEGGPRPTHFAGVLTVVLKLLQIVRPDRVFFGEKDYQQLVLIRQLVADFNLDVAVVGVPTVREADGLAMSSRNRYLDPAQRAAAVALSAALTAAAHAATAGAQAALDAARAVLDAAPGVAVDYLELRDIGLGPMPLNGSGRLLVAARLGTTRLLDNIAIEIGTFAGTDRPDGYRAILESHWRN
Quantity Name: inhibition (%)
Give bare numbers, in %.

Compound: CCN(CC)S(=O)(=O)c1ccc(F)cc1
Quantity Name: inhibition
Recorded Number: 0

Items follow; give inhibition for each.
1. COc1cc(C)c(N)cc1C(C)C
2. C/C(N)=C(/C#N)C(=O)CSc1nnc(Nc2c(C)cccc2C)s1
3. Cc1ccc(C(=O)Nc2ccc(Cl)cn2)cc1S(=O)(=O)N1CCOCC1
4. Cc1oc(-c2ccc(Cl)cc2)cc1-c1nn2c(-c3ccoc3C)nnc2s1
5. COCCn1c(SCC(=O)N(C(C)C)C(C)C)nnc1-c1cc2ccccc2cc1O
6. NS(=O)(=O)c1cc2c(cc1C(F)(F)F)NC(Cc1ccccc1)NS2(=O)=O (stereo unspecified)
7. O=C(Nc1ccccc1)c1cccnc1N1CCOCC1

Key:
1: 2; 2: 9; 3: 0; 4: 3; 5: 0; 6: 0; 7: 0

Items follow; give inhibition for each.
1. COc1ccc(CCn2c(=N)c(C#N)cc3c(=O)n4ccccc4nc32)cc1
2. CCc1nn2c(=O)cc(CSc3nc4sc5c(c4c(=O)n3C)CCCC5)nc2s1
3. CCOC(=O)N1CCN(C(=O)C2CC(=O)N(Cc3ccc(OC)cc3)C2)CC1 (stereo unspecified)

Key:
[0, 0, 3]

* * *

biological target: Pantothenate synthetase (Mycobacterium tuberculosis (strain ATCC 25618 / H37Rv)); assay: Coupled enzyme confirmation of inhibitors against recombinant Mtb PanC (AID 375); settings: coupled enzyme assay; at 10 µM, active compounds read high;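 also: 0% = full reaction with vehicle and 100% = no enzyme background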
Activity calls are given as the source filed them. The rule behind the calls is not given here.
Quantity Name: inhibition

Previously resolved entries follow.
Compound: COc1cccc2c1C(=O)c1c(O)c3c(c(O)c1C2=O)C[C@@](O)(C(=O)CO)C[C@@H]3O[C@H]1C[C@H](N)[C@H](O)[C@H](C)O1
Result: 5% (inactive)
//
Compound: Cc1c(NC(=O)CN2c3cccc4cccc(c34)S2(=O)=O)c(=O)n(-c2ccccc2)n1C
Result: 0% (inactive)
//
Compound: CC(C)(C)Cc1nc(-c2ccccn2)no1
Result: 0% (inactive)
//
Compound: C=C(C)Cn1c(N2CC(C)CC(C)C2)nc2c1c(=O)[nH]c(=O)n2C (stereo not given)
Result: 0% (inactive)

Items follow; give inhibition for each.
1. Nc1c(Sc2ccccc2)c(=O)[nH]c(=O)n1Cc1ccccc1
2. COC(=O)C(NC(C)=O)(Nc1ccccn1)C(F)(F)F (stereo not given)

Key:
1: 0% (inactive); 2: 1% (inactive)

Items follow; give inhibition for each.
1. Oc1ccccc1-c1nnc(COc2ccc(Cl)cc2Cl)o1
2. CSCCC(C(=O)Nc1ccc2c(c1)OCO2)N1C(=O)c2ccccc2C1=O (stereo not given)
3. O=C1N[C@@H](Cc2cnc[nH]2)C(=O)N2CCC[C@@H]12
4. CCOC(=O)C1=C(C)N(C)C(=O)NC1c1cccc(O)c1 (stereo not given)

Key:
["1% (inactive)", "0% (inactive)", "0% (inactive)", "0% (inactive)"]

Data provenance: PubChem BioAssay
